# Test system: LOX IMVI melanoma
# EXPERIMENT_DESCRIPTION: NCI-60 one-dose screen, 48 h
# EXPERIMENTAL_SETUP: 10 µM unless noted
Compounds without any hit were thinned out: in the full panel of roughly 83,000, 20% have a hit. Active and inactive are the calls of the source. How the source made its calls: active means growth percent below 10; inactive means the rest.
Log the outcome using a class from active, inactive

Test call for this compound, please: O=C(/C=C/c1ccc[nH]1)c1ccc(-n2ccc(C(F)(F)F)n2)c(F)c1
inactive

Cool, now CCN1CCN(CCNc2nccc(-c3c(-c4cccc(OC)c4)nc4occn34)n2)S1(=O)=O
inactive

Cool, now C=C(C)[C@@H]1CC[C@]2(C(=O)N[C@H](CO)Cc3ccccc3)CC[C@]3(C)[C@H](CC[C@@H]4[C@@]5(C)CCCNC(C)(C)[C@@H]5CC[C@]43C)[C@@H]12
active
